conditions: in methanol, 303.2 K
measurement_type: solubility (mole fraction)
Give bare numbers.

Return reported solubility (mole fraction). Input compound: COc1cc2nccc(Oc3ccc(NC(=O)C4(C(=O)Nc5ccc(F)cc5)CC4)cc3)c2cc1OC.O=C(O)C[C@H](O)C(=O)O 0.000262

----------
conditions: in transcutol, 318.2 K
measurement_type: solubility (mole fraction)
Give bare numbers.

Return reported solubility (mole fraction). Input compound: COc1cc2nccc(Oc3ccc(NC(=O)C4(C(=O)Nc5ccc(F)cc5)CC4)cc3)c2cc1OC.O=C(O)C[C@H](O)C(=O)O 0.00545

----------
conditions: in DMSO, 298.2 K
measurement_type: solubility (mole fraction)
Answers are plain numbers.

Return reported solubility (mole fraction). Input compound: COc1cc2nccc(Oc3ccc(NC(=O)C4(C(=O)Nc5ccc(F)cc5)CC4)cc3)c2cc1OC.O=C(O)C[C@H](O)C(=O)O 0.0332

Where do these numbers come from? They come from BigSolDB 2.1.
